Assay: Solubility of Compound (1) in water with change in pH
Format: physicochemical
Details: aqueous buffer, 25° C., pH 3.5, immediately after preparation
measurement name: solubility at 0 week

Request: Need solubility at 0 week, item COc1c(N2CC[C@@H](C3(N)CC3)C2)ccc2c(=O)c(C(=O)O)cn([C@@H]3C[C@@H]3F)c12 [Compound (1)]
Response: ≤ 20.1 mg/mL

* * *

Experiment: Solubility of Compound (1) in water with change in pH
Type: physicochemical
Settings: aqueous buffer, 25° C., pH 4.0, immediately after preparation
measurement name: solubility at 0 week

Request: Recorded solubility at 0 week for COc1c(N2CC[C@@H](C3(N)CC3)C2)ccc2c(=O)c(C(=O)O)cn([C@@H]3C[C@@H]3F)c12 , please?
Response: ≤ 20.1 mg/mL

* * *

Experiment: Solubility of Compound (1) in water with change in pH
Type: physicochemical
Conditions: aqueous buffer, 5° C., pH 4.5, immediately after preparation
measurement name: solubility at 0 week

Request: // returns reported solubility at 0 week for input COc1c(N2CC[C@@H](C3(N)CC3)C2)ccc2c(=O)c(C(=O)O)cn([C@@H]3C[C@@H]3F)c12
Response: ≤ 20 mg/mL

* * *

Test: Solubility of Compound (1) in water with change in pH
Assay type: physicochemical
Settings: aqueous buffer, 25° C., pH 3.5, after 1 W
measurement name: solubility at 1 week

Request: Please report the recorded solubility at 1 week for COc1c(N2CC[C@@H](C3(N)CC3)C2)ccc2c(=O)c(C(=O)O)cn([C@@H]3C[C@@H]3F)c12 .
Response: ≤ 20.1 mg/mL

* * *

Experiment: Solubility of Compound (1) in water with change in pH
Format: physicochemical
Details: aqueous buffer, 5° C., pH 5.0, after 1 W
measurement name: solubility at 1 week (mg/mL)
Supply the numeric figure in mg/mL, leaving out any unit text.

Request: If you can, please state the reported solubility at 1 week value of COc1c(N2CC[C@@H](C3(N)CC3)C2)ccc2c(=O)c(C(=O)O)cn([C@@H]3C[C@@H]3F)c12 [Compound (1)] .
Response: 18.4

* * *

Assay: Solubility of Compound (1) in water with change in pH
Format: physicochemical
Conditions: aqueous buffer, 5° C., pH 5.5, after 1 W
measurement name: solubility at 1 week (µg/mL)
Respond with the bare value in µg/mL.

Request: Consider the compound COc1c(N2CC[C@@H](C3(N)CC3)C2)ccc2c(=O)c(C(=O)O)cn([C@@H]3C[C@@H]3F)c12 [Compound (1)] and give its measured solubility at 1 week.
Response: 5400

* * *

Assay: Solubility of Compound (1) in water with change in pH
Assay type: physicochemical
Details: aqueous buffer, 5° C., pH 4.0, immediately after preparation
measurement name: solubility at 0 week

Request: May I ask what solubility at 0 week has been recorded for COc1c(N2CC[C@@H](C3(N)CC3)C2)ccc2c(=O)c(C(=O)O)cn([C@@H]3C[C@@H]3F)c12 ?
Response: ≤ 20.1 mg/mL

* * *

Experiment: Solubility of Compound (1) in water with change in pH
Assay type: physicochemical
Details: aqueous buffer, 25° C., pH 6.0, after 1 W
measurement name: solubility at 1 week
Returns: string containing the number followed by the unit.

Request: # query: solubility at 1 week of entry COc1c(N2CC[C@@H](C3(N)CC3)C2)ccc2c(=O)c(C(=O)O)cn([C@@H]3C[C@@H]3F)c12
Response: 700 µg/mL

* * *

Test: Solubility of Compound (1) in water with change in pH
Format: physicochemical
Conditions: aqueous buffer, pH up to pH 5, read-out: Concentration that can be attained in the solution
measurement name: solubility

Request: Which solubility is listed for COc1c(N2CC[C@@H](C3(N)CC3)C2)ccc2c(=O)c(C(=O)O)cn([C@@H]3C[C@@H]3F)c12 ?
Response: ≥ 10000 µg/mL

* * *

Test: Solubility of Compound (1) in water with change in pH
Type: physicochemical
Conditions: aqueous buffer, 25° C., pH 4.5, immediately after preparation
Experimental: Change in solubility with the change in pH of the drug solution of the Compound (1) was measured by the method commonly used in the art.
measurement name: solubility at 0 week

Request: Form field: reported solubility at 0 week of COc1c(N2CC[C@@H](C3(N)CC3)C2)ccc2c(=O)c(C(=O)O)cn([C@@H]3C[C@@H]3F)c12
Response: ≤ 20.1 mg/mL

* * *

Assay: Solubility of Compound (1) in water with change in pH
Type: physicochemical
Conditions: aqueous buffer, 5° C., pH 3.5, immediately after preparation
measurement name: solubility at 0 week

Request: Fill blank: measured solubility at 0 week of the molecule COc1c(N2CC[C@@H](C3(N)CC3)C2)ccc2c(=O)c(C(=O)O)cn([C@@H]3C[C@@H]3F)c12 is ____.
Response: ≤ 20.1 mg/mL

* * *

Assay: Solubility of Compound (1) in water with change in pH
Type: physicochemical
Conditions: aqueous buffer, 5° C., pH 3.5, after 1 W
measurement name: solubility at 1 week

Request: I have this molecule here, COc1c(N2CC[C@@H](C3(N)CC3)C2)ccc2c(=O)c(C(=O)O)cn([C@@H]3C[C@@H]3F)c12 [Compound (1)] , and I need its recorded solubility at 1 week.
Response: ≤ 19.6 mg/mL

These measurements were taken from patent US20090117205A1.
